System: K562
Test protocol: Cytotoxicity against human leukemia cell line K562
Type: functional, cell-based
compounds and their reported IC50
Could you write the number and then its unit?

// solved cases for IC50 follow
Compound | Study target | IC50
COc1cc(C)c2ccc(O)c(C(=O)OCCOC(=O)CCCc3ccc(N(CCCl)CCCl)cc3)c2c1 | K562 | 200 µM
O=C(O)CCCc1ccc(N(CCCl)CCCl)cc1 | K562 | 95 µM
COc1cc(C)c2ccc(O)c(C(=O)OCCOC(=O)C(N)Cc3ccc(N(CCCl)CCCl)cc3)c2c1 (centres undefined) | K562 | 7 µM

Hello, I am looking for reported IC50 with K562 for `N[C@@H](Cc1ccc(N(CCCl)CCCl)cc1)C(=O)O` . Could you help? 30 µM
